Recorded values, source patent US5707966A.

measured-target: t-PA (Homo sapiens)
Construct: purchased American Diagnostica, Greenwich, Conn
Sequence (P00750 36-562): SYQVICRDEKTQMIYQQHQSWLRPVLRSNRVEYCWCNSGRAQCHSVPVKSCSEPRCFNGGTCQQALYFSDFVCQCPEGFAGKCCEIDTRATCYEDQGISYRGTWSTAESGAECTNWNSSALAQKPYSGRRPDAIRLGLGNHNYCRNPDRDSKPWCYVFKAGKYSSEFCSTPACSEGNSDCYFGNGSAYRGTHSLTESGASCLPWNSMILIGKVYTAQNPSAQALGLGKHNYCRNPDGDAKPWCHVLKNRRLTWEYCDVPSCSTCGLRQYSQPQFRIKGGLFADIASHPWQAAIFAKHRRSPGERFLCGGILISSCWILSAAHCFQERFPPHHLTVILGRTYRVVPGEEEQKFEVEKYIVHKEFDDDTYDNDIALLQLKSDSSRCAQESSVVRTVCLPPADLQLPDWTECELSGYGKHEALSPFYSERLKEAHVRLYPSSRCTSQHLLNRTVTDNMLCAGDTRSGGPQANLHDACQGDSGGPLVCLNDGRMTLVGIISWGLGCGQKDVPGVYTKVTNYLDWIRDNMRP
test-summary: Kass with t-PA, chromogenic substrate
Assay type: biochemical
details: substrate H-D-Ile-Pro-Arg-p-nitroanilide
Where a name gives a salt, the structure may show the parent alone.
property-label: Kass t-PA

## Input Tell me the measured Kass t-PA of `CCS(=O)(=O)N[C@H](Cc1ccccc1)C(=O)N1CCC[C@H]1C(=O)NCCc1cccc(C(=N)N)c1` , please.
## Output 0.02 × 10^6 (L/mole)

## Input Please give the result for `N=C(N)N1CCC(CCNC(=O)[C@@H]2CCCN2C(=O)[C@@H](CC2CCCCC2)NCC(=O)O)CC1` too.
## Output < 0.001 × 10^6 (L/mole)

## Input Please give the result for N=C(N)NCCCNC(=O)[C@@H]1CCCN1C(=O)[C@H](N)Cc1ccccc1 [Example 7, D-Phe-Pro-NH(CH2)3 NHC(NH)NH2.HCl] too.
## Output 0.0037 × 10^6 (L/mole)

## Input Please give the result for N=C(N)c1ccc(CNC(=O)[C@@H]2C[C@@H]3CCCC[C@@H]3N2C(=O)[C@@H](CC2CCCCC2)NCC(=O)O)cc1 (relative stereo) too.
## Output 0.04 × 10^6 (L/mole)

## Input Please give the result for Nc1ccc(CCNC(=O)[C@@H]2CCCN2C(=O)[C@H](N)Cc2ccccc2)cc1 [Example 14, D-Phe-Pro-p-NHCH2 CH2 C6 H4 NH2.HCl] too.
## Output < 0.001 × 10^6 (L/mole)

## Input Please give the result for `N=C(N)c1cccc(CCNC(=O)[C@@H]2CCCN2C(=O)[C@@H]2NCC[C@@H]3CCCC[C@@H]32)c1` too.
## Output < 0.001 × 10^6 (L/mole)
